experimental_target: D(4) dopamine receptor (Homo sapiens, UniProt P21917)
Sequence (P21917 whole entry): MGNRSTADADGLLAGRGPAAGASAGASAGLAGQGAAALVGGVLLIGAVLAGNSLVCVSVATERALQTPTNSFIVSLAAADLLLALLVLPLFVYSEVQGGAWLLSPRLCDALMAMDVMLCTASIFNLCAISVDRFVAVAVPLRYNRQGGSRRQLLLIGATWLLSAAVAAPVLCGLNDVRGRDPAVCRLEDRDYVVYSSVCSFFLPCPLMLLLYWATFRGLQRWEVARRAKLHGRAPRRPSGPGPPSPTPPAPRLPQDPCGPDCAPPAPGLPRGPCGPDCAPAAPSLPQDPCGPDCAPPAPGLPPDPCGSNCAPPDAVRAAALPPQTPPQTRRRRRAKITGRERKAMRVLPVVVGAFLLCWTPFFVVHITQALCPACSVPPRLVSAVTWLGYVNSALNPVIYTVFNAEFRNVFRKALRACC
experimental_protocol: Effective concentration of compound required against human Dopamine D4.2 receptor
Entries and their measured EC50 follow.
// unit must come after the numeric part

Below are worked cases with known answers.
N#Cc1c[nH]c(CN2CCN(c3ccccc3)CC2)c1; 5.6 nM
C#Cc1c[nH]c(CN2CCN(c3ccccc3)CC2)c1; 1.9 nM

Shift focus to the following entry.
Task item: Report its EC50 with D(4) dopamine receptor (Homo sapiens, UniProt P21917) as the test system: `c1ccc(-c2c[nH]c(CN3CCN(c4ccccc4)CC3)c2)cc1`
Reply: 6.8 nM

###

experimental_target: D(4) dopamine receptor (Homo sapiens) (UniProt P21917)
Sequence (whole entry): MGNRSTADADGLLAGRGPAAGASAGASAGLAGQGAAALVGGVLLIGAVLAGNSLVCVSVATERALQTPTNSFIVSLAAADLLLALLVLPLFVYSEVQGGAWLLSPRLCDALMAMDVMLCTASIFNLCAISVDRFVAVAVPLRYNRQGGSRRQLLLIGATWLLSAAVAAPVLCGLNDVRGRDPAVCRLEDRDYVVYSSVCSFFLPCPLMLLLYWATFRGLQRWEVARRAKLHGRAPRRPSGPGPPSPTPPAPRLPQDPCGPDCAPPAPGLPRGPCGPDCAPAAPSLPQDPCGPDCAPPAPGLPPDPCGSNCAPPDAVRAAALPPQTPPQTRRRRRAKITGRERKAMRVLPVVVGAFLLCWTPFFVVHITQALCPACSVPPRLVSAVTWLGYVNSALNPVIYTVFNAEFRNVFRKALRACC
property_name: pEC50
To interpret pEC50, take it as minus log10 of a concentration measured in moles per litre.

Task item: Identify the reported pEC50 for the following entry. `N#Cc1cc(CN2CCN(c3ccccc3)CC2)c[nH]1`
Reply: 8.11

###

experimental_target: D(2) dopamine receptor (Homo sapiens)
Sequence (P14416 whole entry): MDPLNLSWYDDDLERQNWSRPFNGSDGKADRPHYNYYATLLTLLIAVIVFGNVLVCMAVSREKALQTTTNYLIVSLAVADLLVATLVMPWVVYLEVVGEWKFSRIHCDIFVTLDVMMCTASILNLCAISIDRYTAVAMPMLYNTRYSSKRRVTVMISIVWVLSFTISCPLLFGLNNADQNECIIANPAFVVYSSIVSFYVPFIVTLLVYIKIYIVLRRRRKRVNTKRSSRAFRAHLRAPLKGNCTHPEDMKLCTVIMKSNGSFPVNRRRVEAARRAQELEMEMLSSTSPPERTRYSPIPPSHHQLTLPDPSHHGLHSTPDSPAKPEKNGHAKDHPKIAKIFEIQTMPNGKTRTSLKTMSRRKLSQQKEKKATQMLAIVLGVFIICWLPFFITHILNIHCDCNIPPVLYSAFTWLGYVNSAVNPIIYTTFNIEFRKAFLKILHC
experimental_protocol: Ability to displace [3H]spiperone radioligand from cloned human Dopamine receptor D2 in CHO cells
Format: cell-based
property_name: Ki (nM)
Unit nM implied. Number only.

N#Cc1cc(CN2CCN(c3ccccc3)CC2)c[nH]1; 3400
N#Cc1c[nH]c(CN2CCN(c3ccccc3)CC2)c1; 8000
c1ccc(N2CCN(Cc3ccc[nH]3)CC2)cc1; 3000
C#Cc1c[nH]c(CN2CCN(c3ccccc3)CC2)c1; 580
C(#Cc1c[nH]c(CN2CCN(c3ccccc3)CC2)c1)c1ccccc1; 550

Shift focus to the following entry.
Task item: Identify the reported Ki for the following entry. `c1ccc(-c2c[nH]c(CN3CCN(c4ccccc4)CC3)c2)cc1`
Reply: 170
